- SUBJECT OF TEST: human IP6K1 (Homo sapiens)
- Construct: human IP6K1 (1-441) gene; GST; made in house; host or cells: Sf-9 insect cells
- Sequence (Q92551 whole entry): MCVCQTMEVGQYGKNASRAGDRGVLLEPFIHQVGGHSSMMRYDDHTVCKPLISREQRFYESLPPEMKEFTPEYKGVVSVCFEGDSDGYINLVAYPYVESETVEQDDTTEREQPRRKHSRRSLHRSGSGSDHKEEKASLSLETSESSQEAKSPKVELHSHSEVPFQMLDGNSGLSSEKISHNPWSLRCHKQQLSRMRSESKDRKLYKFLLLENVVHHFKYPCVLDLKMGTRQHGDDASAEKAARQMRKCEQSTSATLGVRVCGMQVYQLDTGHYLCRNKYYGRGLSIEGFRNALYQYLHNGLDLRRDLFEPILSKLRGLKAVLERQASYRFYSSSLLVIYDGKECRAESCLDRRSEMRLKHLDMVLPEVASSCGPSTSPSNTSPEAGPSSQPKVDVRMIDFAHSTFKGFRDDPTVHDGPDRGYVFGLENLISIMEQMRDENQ
- ASSAY NAME: IP6K enzyme inhibitory assay (ADP-Glo Kinase Assay), human IP6K1
- Assay type: biochemical
- COND: compound concentration 0.1 μM; read-out: ADP-Glo method inhibitory rate (%) human IP6K1
PROPERTY LABEL: inhibition at 0.1 µM (%)

* O=C(O)c1ccc2c(c1)[C@]1(CC[C@@H](Oc3cccc(C(F)(F)F)c3)CC1)C(=O)N2 | 89

[I] O=C(O)c1ccc2c(c1)[C@]1(CC[C@@H](Oc3ncc(C(F)(F)F)cc3F)CC1)C(=O)N2
[II] O=C(O)c1ccc2c(c1)[C@]1(CC[C@@H](Oc3ncc(F)cc3F)CC1)C(=O)N2
**Query** Which numeric inhibition at 0.1 µM is bigger, that of I or that of II ? Write down the label of the entry you select.
**Result** I

Where do the numbers come from? From patent US10968178B2.
